# protocol: gradient 5% acetonitrile 3 min, to 50% in 2 min, to 85% in 15 min, held 3 min, 100 µL/min
# studyConditions: column: Zorbax Extend-C18 2.1 x 50 mm; eluents: water / acetonitrile, 0.1% formic acid
Strictly below 700 s in RP-LC retention time: Fulfilled. Otherwise: Not fulfilled.

INSERT INTO measurements (compound, labelvalue) VALUES
  ('CS(=O)(=O)N1CCCC(C(=O)Nc2ccc(Cl)cc2C(=O)c2ccccc2)C1 (centres undefined)', 'Not fulfilled'),
  ('Cc1noc(C)c1S(=O)(=O)N1CCC(c2noc(-c3ccncc3)n2)C1 (centres undefined)', 'Not fulfilled'),
  ('Cc1ccc(C)c(NC(=O)Cn2nc3cc(C)nc(N4CCCC4)n3c2=O)c1', 'Not fulfilled'),
  ('CN(C)C[C@@H]1CN(Cc2ccncc2)C[C@H]1NS(=O)(=O)c1ccc(C#N)cc1', 'Fulfilled'),
  ('CCOc1ccc(-c2cc3c(=O)n(Cc4nc(-c5ccc(C)cc5)no4)ccn3n2)cc1', 'Not fulfilled'),
  ('COc1ccc(CNC(=O)C2CCCN(c3ccc(=O)n(-c4ccc(C)c(Cl)c4)n3)C2)cc1OC (centres undefined)', 'Not fulfilled'),
  ('O=C(CCn1cnc2cc(-c3noc(CCc4c[nH]c5ccccc45)n3)ccc21)N1CCCC1', 'Not fulfilled'),
  ('CCc1ccc(C2=C(C)C(N3CCCN(C(=O)COC)CC3)=NS2(=O)=O)cc1', 'Not fulfilled'),
  ('O=C(NCCc1csc(-c2ccc(F)cc2)n1)Oc1ccccc1', 'Not fulfilled'),
  ('Cc1nc(-c2ccc(N3CCN(C(=O)c4cccs4)CC3)nc2)sc1C', 'Not fulfilled'),
  ('CCN(CC)C(=O)c1ccc2c(c1)N(CC(=O)NCc1ccco1)C(=O)C1CCCCN21 (centres undefined)', 'Not fulfilled'),
  ('COc1ccccc1NC(=O)Nc1nc(CC(=O)N2CCC(C(N)=O)CC2)cs1', 'Fulfilled'),
  ('Cc1c(C2CCN(C(=O)c3n[nH]c4ccccc34)CC2)noc1N', 'Fulfilled'),
  ('CS(=O)(=O)c1ccccc1NC(=O)C1CCCCN1S(=O)(=O)c1cccs1 (centres undefined)', 'Not fulfilled'),
  ('Cc1cc(C(=O)NC2CCc3nnc(C)n3CC2)c(C)n1Cc1ccco1 (centres undefined)', 'Fulfilled'),
  ('COCC(=O)NC1CCC12CCN(C(=O)CCC1CCCC1)CC2 (centres undefined)', 'Not fulfilled'),
  ('COCC(=O)N1CCCn2cc(-c3cccc(C#N)c3)nc21', 'Fulfilled'),
  ('CCS(=O)(=O)c1ccc2c(c1)N(Cc1nc(-c3ccc(OC(F)(F)F)cc3)no1)C(=O)CO2', 'Not fulfilled'),
  ('COc1cc(NC(=O)Cn2c(=O)nc(N3CCCC(C)C3)c3ccccc32)cc(OC)c1 (centres undefined)', 'Not fulfilled'),
  ('CCc1noc(NC(C)=O)c1-c1ccc(C)c(S(=O)(=O)NC(C)CC)c1 (centres undefined)', 'Not fulfilled'),
  ('O=C(Cn1ncc2c(N3CCN(c4ccccn4)CC3)ncnc21)Nc1ccc(F)c(F)c1', 'Fulfilled'),
  ('CCc1ccc(-c2csc(Nc3ccccn3)n2)cc1', 'Not fulfilled'),
  ('COc1ccc(-c2nc(C3CC(=O)N(c4ccc(OC)c(OC)c4)C3)no2)c(OC)c1 (centres undefined)', 'Not fulfilled'),
  ('CCN1C(=O)CCc2cc(NS(=O)(=O)c3cccc(Cl)c3)ccc21', 'Not fulfilled'),
  ('Cc1ccccc1NC(=O)NC1CCN(C(=O)C2CC2)C1 (centres undefined)', 'Fulfilled'),
  ('CC(C)NC(=O)c1ccc(OCC2CCN(C(=O)c3ccc(F)c(F)c3)CC2)cc1', 'Not fulfilled'),
  ('Cc1cc2c(c(=O)n(-c3ccc(F)cc3)c(=O)n2CC(=O)Nc2ccc(Cl)cc2F)n1C', 'Not fulfilled'),
  ('O=C(CCn1nnc2cc(-c3noc(Cc4ccc(F)cc4)n3)ccc21)N1CCCC1', 'Not fulfilled'),
  ('O=C(NCC1CC(=O)N(c2ccc3c(c2)OCO3)C1)C1CC1 (centres undefined)', 'Fulfilled'),
  ('CNC(=O)C1CN(C(=O)Cc2ccc(C)cc2)CC12CCCC2 (centres undefined)', 'Not fulfilled'),
  ('Cc1cc(C)nc(Nc2nc(CC(=O)Nc3nc(C)c(C(=O)N(C)C)s3)cs2)n1', 'Fulfilled'),
  ('COCC(=O)N1CCC2(CC1)NC(=O)c1ccccc1O2', 'Fulfilled'),
  ('COc1cccc(-c2noc(Cn3cnc4c(oc5ccccc54)c3=O)n2)c1', 'Not fulfilled'),
  ('Cc1ccccc1NS(=O)(=O)c1cn(C(C)C)c2ncccc12', 'Not fulfilled'),
  ('Clc1ccc(Nc2nc(NCCCn3ccnc3)nc3nc[nH]c23)cc1', 'Fulfilled'),
  ('CCCCC1CCC(C(=O)Nc2nc(-c3ccc4c(c3)N(C)C(=O)CO4)c(C)s2)CC1 (centres undefined)', 'Not fulfilled');

----------
# protocol: gradient 5% acetonitrile 3 min, to 50% in 2 min, to 85% in 15 min, held 3 min, 100 µL/min
# studyConditions: column: Zorbax Extend-C18 2.1 x 50 mm; eluents: water / acetonitrile, 0.1% formic acid
Strictly below 800 s in RP-LC retention time: true (1). Otherwise: false (0).

INSERT INTO assay_data (compound, labelvalue) VALUES
  ('COC(=O)c1ccccc1S(=O)(=O)Nc1ccc2c(c1)CCC(=O)N2C', 'true (1)'),
  ('CCOCCOC(=O)C1=C(C)NC2=C(C(=O)C(C(=O)OC)C(C)C2)C1c1cccc(F)c1 (stereo unspecified)', 'false (0)'),
  ('COc1ccc(NC(=O)N2CC(C)Oc3ccc(C)cc32)cc1OC (stereo unspecified)', 'false (0)'),
  ('Cc1cc(C)c(NC(=O)CSc2nccc(N3CCN(c4cc(C)ccc4C)CC3)n2)c(C)c1', 'false (0)'),
  ('O=C(Cc1nnc(-c2cnccn2)o1)Nc1ccc(Cl)cc1Cl', 'true (1)'),
  ('CCCC(=O)NC1CCN(c2ccc(F)cc2)C1=O (stereo unspecified)', 'true (1)'),
  ('Cc1ccc(C(=O)CC2(O)C(=O)Nc3ccccc32)cc1 (stereo unspecified)', 'true (1)'),
  ('CC(NC(=O)c1c(O)c2cccnc2n(-c2cccc(F)c2)c1=O)c1ccccc1 (stereo unspecified)', 'false (0)'),
  ('CCOc1ccc(NC(=O)N2CCCC(C)(C(=O)NCc3ccccc3)C2)cc1 (stereo unspecified)', 'false (0)'),
  ('CCCCC(=O)Nc1cnc(N2CCNCC2)c(C(=O)N2CCCCC2C)c1 (stereo unspecified)', 'true (1)'),
  ('COc1ccc(NC(=O)C2CCCN(c3ncnc4c3oc3ccccc34)C2)cc1 (stereo unspecified)', 'true (1)'),
  ('COc1ccc(C)cc1NC(=O)Cn1nc(N2CCOCC2)c2ccccc2c1=O', 'false (0)'),
  ('CNC(=O)c1cc(NC(=O)C2CCC2)cc2nc(C)ccc12', 'true (1)'),
  ('O=C(c1cc(F)ccc1Cl)N1CCc2nc(-c3ccc(F)cc3)ncc2C1', 'false (0)'),
  ('CCCN1C(=O)c2c(C(=O)NCc3ccccc3C)ncn2CC1(C)C(=O)NCCC(C)C (stereo unspecified)', 'false (0)'),
  ('CCc1ccc(Nc2nc(C(=O)NCCC3=CCCCC3)nc3ccccc23)cc1', 'false (0)'),
  ('COc1ccc2c(c1)C=C(C(=O)NC1CCCC1)C=CO2', 'false (0)'),
  ('CNC(=O)C1CC(=O)N(c2ccc(C)cc2)C1 (stereo unspecified)', 'true (1)');

----------
Measured RP-LC retention time, listed per entry for reference.
# protocol: gradient 5% acetonitrile 3 min, to 50% in 2 min, to 85% in 15 min, held 3 min, 100 µL/min
# studyConditions: column: Zorbax Extend-C18 2.1 x 50 mm; eluents: water / acetonitrile, 0.1% formic acid
assayReadout: RP-LC retention time (s)

INSERT INTO assay_data (compound, unitname, val) VALUES
  ('CC(=O)Nc1ccc(SCC(=O)Nc2ccc(OC(F)(F)F)cc2)nn1', 's', 745),
  ('Fc1ccc(Nc2nc(NCC3CCCO3)nc3c2cnn3-c2ccccc2)cc1 (stereo not given)', 's', 1050),
  ('O=C(Nc1ccc2cn[nH]c2c1)c1ccc(=O)[nH]n1', 's', 567),
  ('O=C(Nc1cc(-c2ccccn2)no1)c1ccoc1', 's', 713),
  ('COC(=O)c1cc(OCC(=O)Nc2ccccc2F)c2ccccc2n1', 's', 799),
  ('CCCCNC(=O)c1cc(NC(=O)CC)cc2nc(C)ccc12', 's', 595),
  ('Fc1ccc(Cl)cc1-c1nc(-c2ccc(-n3cccn3)nc2)no1', 's', 1290),
  ('COc1ccccc1NC(=O)C1CCN(S(=O)(=O)c2cn(C(C)C)cn2)CC1', 's', 757),
  ('CCN(CC)C(C(=O)NC1CCCC1)c1cc2c(cc1[N+](=O)[O-])OCO2 (stereo not given)', 's', 586),
  ('O=C(NCc1cccnc1)C1CCN(S(=O)(=O)c2ccc(-c3noc(C4CC4)n3)cc2)CC1', 's', 659);
